B1: glmS ribozyme (parent)
chain: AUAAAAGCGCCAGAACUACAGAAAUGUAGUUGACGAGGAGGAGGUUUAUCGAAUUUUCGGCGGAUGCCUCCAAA

# Variants of: B1
# assayName: self-cleavage kobs at 640 uM GlcN6P; higher = faster cleavage; RNA array
# conditionSummary: with glucosamine-6-phosphate
This sample holds only a part of the variants without activity.
Decide using self-cleavage kobs at 640 uM GlcN6P: a value greater than or equal to 0.0003 s⁻¹ is y, a smaller one is n.

# mutantLabel, classification
data = [
    ("G41U U45G U47A C71U", "n"),
    ("C50U A53U C70G", "n"),
    ("A6U A14G", "n"),
    ("C10G G29C C50G C58G A64U C70A", "n"),
    ("G7U G9A C16U G29A A53U G59A G66A U69G", "n"),
    ("G29U U30C", "n"),
    ("A48U C50U C58A", "n"),
    ("C8A G9C G29C G35U", "n"),
    ("A6C C71U", "n"),
    ("G37U A42G", "n"),
    ("G38A G59C G62U", "n"),
    ("U45G A53G G62A", "n"),
    ("G9U U31A", "n"),
    ("A12U C68A", "n"),
    ("A42U U49G U57A C61G", "n"),
    ("G35U G60A", "n"),
    ("G29C G43U U57G", "n"),
    ("U56G A64G", "y"),
    ("A14C G63C U69G", "n"),
    ("C8G G41U", "n"),
    ("C34U A53U C70G", "n"),
    ("G13C A36C C71G", "n"),
    ("A12C G66U C70U", "y"),
    ("U49C G51C", "n"),
    ("A14C C58A C67A C68G", "n"),
    ("G13U C16G", "n"),
    ("G41A C58U C70G", "n"),
    ("A14G G29U A52C C68A", "n"),
    ("A6G G9U A64G", "n"),
    ("G35A C71U", "n"),
    ("A14U G41C C70G", "y"),
    ("G44A A64C", "n"),
    ("C16U A39U G66U", "y"),
    ("G37A G63U A64C", "n"),
    ("G37U C71U", "n"),
    ("A36G A39G", "n"),
    ("G40C U55C", "n"),
    ("G38U U57A C71G", "n"),
    ("A14C A53U", "y"),
    ("G9C A64U G66C C70U C71U", "n"),
    ("G7C C11U G40U C71A", "n"),
    ("A33U U55C C70U", "n"),
    ("G13U G32A C70A", "n"),
    ("G38U G66C", "n"),
    ("C16G U56A", "y"),
    ("G9A C10G G29U G62A", "n"),
    ("G38U A52C A53C C68A C71U", "y"),
    ("A12U G44U", "n"),
    ("U54C C71A", "y"),
    ("C8U U30C", "n"),
    ("G7A A53C C68U", "n"),
    ("G40U C61G U65G", "n"),
    ("A14C G32A G40U G59C", "n"),
    ("C61U G62U", "n"),
    ("G41C A64G", "n"),
    ("A14G G59U", "n"),
    ("G7C C58G", "n"),
    ("G9C C16G G38U U65A", "n"),
    ("U55A U56C", "y"),
    ("A12U G37A U56G", "y"),
    ("G43C A48G C71G", "n"),
    ("C11G G37C A39G", "n"),
    ("G32U U56A", "n"),
    ("G37C A48C", "n"),
    ("A15U U31G U47A", "n"),
    ("A6U G29U A52C", "n"),
    ("G13U G32A G41C G63U C71A", "n"),
    ("C58U G60A", "n"),
    ("A36G G41A G63U", "n"),
    ("G35C G40C G60C", "n"),
    ("C16G G35C", "n"),
    ("A12U U49G", "y"),
    ("G32A A42C", "n"),
    ("C16U U30C", "n"),
    ("C16G U55G", "y"),
    ("U30C U57C", "n"),
    ("G29A G32A U57C U69C", "n"),
    ("U55G C68U", "y"),
    ("G60U U65A", "n"),
    ("U45A U47A", "y"),
    ("G37A G41A A48G", "n"),
    ("G38U U65G C70U", "n"),
    ("A6C C11U G51C C67G C68A", "n"),
    ("G44A U54C", "n"),
    ("A6G A42C A52U C68A", "n"),
    ("C8U G41A", "n"),
    ("G32C U49A", "n"),
    ("A48C C50U", "n"),
    ("U46C U54G", "y"),
    ("G13A A53G", "n"),
    ("A6G C16A A52C", "n"),
]
